// data source = patent US8933195B2

- Tested on: human colon cancer HCT-116
- test summary: Subcutaneously transplanted tumors in nude mice
- Assay type: in vivo, BALB/cA nude mice
- setup conditions: Table 2.3; 20 mg/kg; d 10
The entries below come with measured Weight (mean ± SD) d 10 values attached.
readout name: Weight (mean ± SD) d 10

{"molecular string": "C/C=C1\\NC(=O)c2csc(n2)CNC(=O)C[C@@H](/C=C/CCSC(=O)CCCCCCC)OC(=O)[C@H](Cc2ccccc2)NC1=O", "readout name": "Weight (mean ± SD) d 10", "recorded result": "14.5 ± 1.2 g"}
{"molecular string": "C/C=C1\\NC(=O)c2csc(n2)CNC(=O)C[C@@H](/C=C/CCSC(=O)CCCCCCC)OC(=O)[C@H](C(C)(C)C)NC1=O", "readout name": "Weight (mean ± SD) d 10", "recorded result": "15.5 ± 1.6 g"}
{"molecular string": "C/C=C1\\NC(=O)c2csc(n2)CNC(=O)C[C@@H](/C=C/CCSC(=O)CCCCCCC)OC(=O)[C@H](C)NC1=O", "readout name": "Weight (mean ± SD) d 10", "recorded result": "14.5 ± 1.0 g"}
{"molecular string": "C/C=C1\\NC(=O)c2csc(n2)CNC(=O)C[C@@H](/C=C/CCSC(=O)CCCCCCC)OC(=O)[C@H](Cc2ccc(O)cc2)NC1=O", "readout name": "Weight (mean ± SD) d 10", "recorded result": "14.5 ± 1.2 g"}

---

- Test system: human colon cancer HCT-116
- test summary: Subcutaneously transplanted tumors in nude mice
- Type: in vivo, BALB/cA nude mice
- setup conditions: Table 2.3; 20 mg/kg; d 0
The entries below come with measured Weight (mean ± SD) d 0 values attached.

{"molecule": "C/C=C1\\NC(=O)c2csc(n2)CNC(=O)C[C@@H](/C=C/CCSC(=O)CCCCCCC)OC(=O)[C@H](C)NC1=O [Compound 1-4]", "unit name": "g", "Weight (mean ± SD) d 0": 16.6}
{"molecule": "C/C=C1\\NC(=O)c2csc(n2)CNC(=O)C[C@@H](/C=C/CCSC(=O)CCCCCCC)OC(=O)[C@H](C(C)(C)C)NC1=O [Compound 1-6]", "unit name": "g", "Weight (mean ± SD) d 0": 16.9}
{"molecule": "C/C=C1\\NC(=O)c2csc(n2)CNC(=O)C[C@@H](/C=C/CCSC(=O)CCCCCCC)OC(=O)[C@H](Cc2ccc(O)cc2)NC1=O [Compound 1-8]", "unit name": "g", "Weight (mean ± SD) d 0": 16.3}
{"molecule": "C/C=C1\\NC(=O)c2csc(n2)CNC(=O)C[C@@H](/C=C/CCSC(=O)CCCCCCC)OC(=O)[C@H](Cc2ccccc2)NC1=O [Compound 1-7]", "unit name": "g", "Weight (mean ± SD) d 0": 16.6}

---

- Tested on: MCF-7 (human breast cancer cells)
- test summary: MTT cancer cell growth inhibition
- Type: cell-based
- setup conditions: MCF7, 72 h
Just a reminder that ties go to n: only GI50 strictly below 2000 nM counts as y.

{"molecule": "C/C=C1\\NC(=O)C2N=C(CNC(=O)C[C@@H](/C=C/CCSC(=O)CCCCCCC)OC(=O)[C@H](C(C)C)NC1=O)O[C@@H]2C (stereo partly shown) [Compound 2-2]", "label": "n"}
{"molecule": "CCCCCCCC(=O)SCC/C=C/[C@@H]1CC(=O)NCc2nc(cs2)C(=O)N[C@H](CC)C(=O)N[C@@H](C(C)C)C(=O)O1 [Compound 3-2]", "label": "y"}
{"molecule": "C/C=C1\\NC(=O)c2csc(n2)CNC(=O)C[C@@H](/C=C/CCSC(=O)CCCCCCC)OC(=O)[C@H](Cc2ccccc2)NC1=O [Compound 1-7]", "label": "y"}
{"molecule": "C/C=C1\\NC(=O)c2csc(n2)[C@H](Cc2ccc(O)cc2)NC(=O)C[C@@H](/C=C/CCSC(=O)CCCCCCC)OC(=O)[C@H](C(C)C)NC1=O [Compound 4-4]", "label": "y"}
{"molecule": "C/C=C1\\NC(=O)C2N=C(CNC(=O)C[C@@H](/C=C/CCSC(=O)CCCCCCC)OC(=O)[C@H](C(C)C)NC1=O)S[C@@H]2C (stereo partly shown) [Compound 2-3]", "label": "n"}
{"molecule": "C/C=C1\\NC(=O)c2csc(n2)CNC(=O)C[C@@H](/C=C/CCSC(=O)Cc2ccccc2)OC(=O)[C@H](C(C)C)NC1=O [Compound 6-4]", "label": "y"}
{"molecule": "C/C=C1\\NC(=O)c2csc(n2)[C@H](Cc2ccccc2)NC(=O)C[C@@H](/C=C/CCSC(=O)CCCCCCC)OC(=O)[C@H](C(C)C)NC1=O [Compound 4-3]", "label": "n"}
{"molecule": "O=C(CCCCCCC(=O)Nc1ccccc1)NO [SAHA, suberoylanilide hydroxamic acid, reference compound]", "label": "y"}
{"molecule": "C/C=C1\\NC(=O)c2csc(n2)CNC(=O)C[C@@H](/C=C/CCSC(=O)CCCCCCC)OC(=O)[C@H](C(C)C)NC1=O [Compound 1-3]", "label": "y"}
{"molecule": "C/C=C1\\NC(=O)c2csc(n2)CNC(=O)C[C@@H](/C=C/CCSC(=O)CCCCCCC)OC(=O)[C@H](C(C)C)N(C)C1=O [Compound 5-2]", "label": "y"}
